Target: Prostaglandin G/H synthase 1 (Homo sapiens)
Conditions: at 100 µM
Description: In vitro percent Inhibition of recombinant human prostaglandin G/H synthase 1 (COX-1) at a concentration of 100 uM
readout: inhibition (%)
Give bare numbers, in %.

Example cases with answers are listed next.
compound: CCOC(=O)C1CCN(Cc2cc3c(cc2-c2ccc(S(C)(=O)=O)cc2)OCO3)CC1
recorded-result: 0

compound: CS(=O)(=O)c1ccc(-c2cc3c(cc2CN2CCC(O)CC2)OCO3)cc1
recorded-result: 0

compound: CS(=O)(=O)c1ccc(-c2cc3c(cc2C(=O)N2CCCCC2)OCO3)cc1
recorded-result: 15

compound: CS(=O)(=O)c1ccc(-c2cc3c(cc2CN2CCCCC2CO)OCO3)cc1 (stereo not drawn)
recorded-result: 0

compound: Cc1cccnc1C(=O)c1cc2c(cc1-c1ccc(S(C)(=O)=O)cc1)OCO2
recorded-result: 0

Below is a list of compounds. For each, state its recorded inhibition.
1. CS(=O)(=O)c1ccc(-c2cc3c(cc2C(=O)c2cccnc2)OCO3)cc1
2. CS(=O)(=O)c1ccc(-c2cc3c(cc2CCCc2ccccc2)OCO3)cc1
3. CS(=O)(=O)c1ccc(-c2cc3c(cc2CN2CCCCC2)OCO3)cc1
4. CS(=O)(=O)c1ccc(-c2cc3c(cc2C(O)c2ccccc2)OCO3)cc1 (stereo not drawn)
5. CS(=O)(=O)c1ccc(-c2cc3c(cc2C(=O)N2CCOCC2)OCO3)cc1
6. CS(=O)(=O)c1ccc(C2=C(c3ccccc3)C(=O)OC2)cc1
7. CS(=O)(=O)c1ccc(-c2cc3c(cc2CC2CCCCC2)OCO3)cc1
8. O=S(=O)(CF)c1ccc(-c2cc3c(cc2Cc2ccccc2)OCO3)cc1

1. 20
2. 10
3. 0
4. 0
5. 10
6. 0
7. 0
8. 50

---

Target: Prostaglandin G/H synthase 1 (Homo sapiens, UniProt P23219)
Sequence (P23219 whole entry): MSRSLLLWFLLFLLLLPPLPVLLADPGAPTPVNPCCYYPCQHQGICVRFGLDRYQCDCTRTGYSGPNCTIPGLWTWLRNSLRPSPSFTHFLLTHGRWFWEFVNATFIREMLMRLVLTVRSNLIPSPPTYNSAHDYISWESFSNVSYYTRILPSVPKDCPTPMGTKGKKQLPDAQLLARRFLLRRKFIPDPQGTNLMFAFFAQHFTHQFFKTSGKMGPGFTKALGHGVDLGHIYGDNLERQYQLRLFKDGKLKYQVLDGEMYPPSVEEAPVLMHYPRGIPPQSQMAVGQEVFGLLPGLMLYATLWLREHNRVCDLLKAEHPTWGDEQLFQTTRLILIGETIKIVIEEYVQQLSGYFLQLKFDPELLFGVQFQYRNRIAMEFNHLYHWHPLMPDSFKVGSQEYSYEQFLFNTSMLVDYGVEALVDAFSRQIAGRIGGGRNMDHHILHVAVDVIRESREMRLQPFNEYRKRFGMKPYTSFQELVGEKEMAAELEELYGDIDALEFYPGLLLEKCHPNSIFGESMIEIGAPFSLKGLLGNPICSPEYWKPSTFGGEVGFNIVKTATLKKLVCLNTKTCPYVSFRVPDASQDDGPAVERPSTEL
Conditions: at 100 µM
Kindly supply the reported inhibition values for the records listed here.
One number for each entry, in %.

Example cases with answers are listed next.
compound: NS(=O)(=O)c1ccc(-c2cc3c(cc2Cc2ccccc2)OCO3)cc1
unit-descriptor: %
recorded-result: 90
//
compound: CS(=O)(=O)c1ccc(-c2cc3c(cc2C=C2CCCCC2)OCO3)cc1
unit-descriptor: %
recorded-result: 0
//
compound: CS(=O)(=O)c1ccc(-c2cc3c(cc2C(=O)N2CCCC2)OCO3)cc1
unit-descriptor: %
recorded-result: 0
//
compound: CS(=O)(=O)c1ccc(-c2cc3c(cc2Cc2cccnc2)OCO3)cc1
unit-descriptor: %
recorded-result: 30

Okay, next one:
Measured inhibition of CS(=O)(=O)c1ccc(-c2cc3c(cc2CN2CCCC(CO)C2)OCO3)cc1 (stereo not given) : 0

---

Target: Prostaglandin G/H synthase 2 (Homo sapiens)
Sequence (whole entry): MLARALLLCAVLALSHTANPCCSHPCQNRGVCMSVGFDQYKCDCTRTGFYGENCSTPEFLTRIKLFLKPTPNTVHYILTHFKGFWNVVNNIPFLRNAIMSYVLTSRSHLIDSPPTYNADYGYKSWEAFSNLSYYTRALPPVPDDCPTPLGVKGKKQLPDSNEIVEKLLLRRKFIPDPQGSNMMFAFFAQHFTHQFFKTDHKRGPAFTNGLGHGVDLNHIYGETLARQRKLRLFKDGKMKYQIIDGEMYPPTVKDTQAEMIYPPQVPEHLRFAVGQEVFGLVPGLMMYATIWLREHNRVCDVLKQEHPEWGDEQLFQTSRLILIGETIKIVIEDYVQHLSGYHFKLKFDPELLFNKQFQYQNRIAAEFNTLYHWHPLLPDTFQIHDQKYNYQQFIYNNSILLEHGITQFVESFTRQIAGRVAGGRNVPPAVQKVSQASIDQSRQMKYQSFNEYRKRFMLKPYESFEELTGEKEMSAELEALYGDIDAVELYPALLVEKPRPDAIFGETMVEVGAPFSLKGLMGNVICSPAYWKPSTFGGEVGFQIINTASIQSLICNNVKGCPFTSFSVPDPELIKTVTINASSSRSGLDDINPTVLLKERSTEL
Conditions: at 10 µM
Description: In vitro percent Inhibition of recombinant human prostaglandin G/H synthase 2 (COX-2) at a concentration of 10 uM
If the reported inhibition equals or exceeds 40%, assign True. If not, assign False.

For this compound, is measured inhibition 40% or higher? CS(=O)(=O)c1ccc(-c2cc3c(cc2CC2CCCCCC2)OCO3)cc1
True

For this compound, is measured inhibition 40% or higher? CCOC(=O)C1CCN(Cc2cc3c(cc2-c2ccc(S(C)(=O)=O)cc2)OCO3)CC1
False

For this compound, is measured inhibition 40% or higher? CS(=O)(=O)c1ccc(-c2cc3c(cc2CN2CCCCC2=O)OCO3)cc1
True

---

Target: Prostaglandin G/H synthase 1 (Homo sapiens)
Assay: Compound was tested for in vitro Prostaglandin G/H synthase 1 (COX-1) idetermined in human whole blood by human whole blood assay
Type: tissue-based
readout: pIC50
One number for each entry, as −log10 of the molar value.

Measured pIC50 of CS(=O)(=O)c1ccc(-c2cc3c(cc2Cc2ccccc2)OCO3)cc1 : 4.22

---

Biological target: Prostaglandin G/H synthase 2 (Homo sapiens)
Settings: at 1 µM
Description: In vitro percent Inhibition of recombinant human prostaglandin G/H synthase 2 (COX-2) at a concentration of 1 uM
Kindly supply the reported inhibition values for the records listed here.
One number for each entry, in %.

Below is a list of compounds. For each, state its recorded inhibition.
1. CS(=O)(=O)c1ccc(-c2cc3c(cc2C(O)c2ccccc2)OCO3)cc1 (stereo unspecified)
2. CS(=O)(=O)c1ccc(-c2cc3c(cc2Cc2cc(F)cc(F)c2)OCO3)cc1
3. CS(=O)(=O)c1ccc(-c2cc3c(cc2C=C2CCCC2)OCO3)cc1

1. 0
2. 90
3. 65

Below is a list of compounds. For each, state its recorded inhibition.
1. CCOC(=O)C1CCN(Cc2cc3c(cc2-c2ccc(S(C)(=O)=O)cc2)OCO3)CC1
2. CCOC(=O)C1CCCN(Cc2cc3c(cc2-c2ccc(S(C)(=O)=O)cc2)OCO3)C1 (stereo unspecified)
3. CS(=O)(=O)c1ccc(-c2cc3c(cc2C(=O)c2cnccc2Br)OCO3)cc1
4. CS(=O)(=O)c1ccc(-c2cc3c(cc2Cc2ccccc2)OCO3)cc1
5. CS(=O)(=O)c1ccc(-c2cc3c(cc2Cc2cccnc2)OCO3)cc1
6. CS(=O)(=O)c1ccc(-c2cc3c(cc2C(=O)c2cccnc2)OCO3)cc1
7. O=S(=O)(CF)c1ccc(-c2cc3c(cc2Cc2ccccc2)OCO3)cc1

20
40
10
85
0
0
25

Measured inhibition of CS(=O)(=O)c1ccc(C2=C(c3ccccc3)C(=O)OC2)cc1 : 40

---

Target: Prostaglandin G/H synthase 1 (Homo sapiens)
Assay: Compound was tested for in vitro inhibition of recombinant human Prostaglandin G/H synthase 1 (COX-1) by enzyme Assay
pIC50: −log10 of the molar value.
readout: pIC50

Entry CS(=O)(=O)c1ccc(-c2cc3c(cc2C=C2CCCCC2)OCO3)cc1 , tested on Prostaglandin G/H synthase 1 (Homo sapiens), has a reported pIC50 of < 4.00

---

Target: Prostaglandin G/H synthase 1 (Homo sapiens)
Details: at 100 µM
readout: inhibition
Quote the value and follow it with the unit of measurement.

Example cases with answers are listed next.
compound: CN1CCN(C(=O)c2cc3c(cc2-c2ccc(S(C)(=O)=O)cc2)OCO3)CC1
readout: inhibition
recorded-result: 15%
--
compound: CS(=O)(=O)c1ccc(-c2cc3c(cc2C(=O)c2ccccc2)OCO3)cc1
readout: inhibition
recorded-result: 0%
--
compound: CS(=O)(=O)c1ccc(-c2cc3c(cc2CN2CCCCC2=O)OCO3)cc1
readout: inhibition
recorded-result: 70%
--
compound: CS(=O)(=O)c1ccc(-c2cc3c(cc2Cc2ccccc2)OCO3)cc1
readout: inhibition
recorded-result: 0%

Okay, next one:
Measured inhibition of CCOC(=O)C1CCCN(Cc2cc3c(cc2-c2ccc(S(C)(=O)=O)cc2)OCO3)C1 (stereo not given) : 10%

---

Target: Prostaglandin G/H synthase 2 (Homo sapiens) (UniProt P35354)
Conditions: at 10 µM
readout: inhibition (%)
One number for each entry, in %.

Example cases with answers are listed next.
compound-structure: CS(=O)(=O)c1ccc(-c2cc3c(cc2C(=O)c2ccccc2)OCO3)cc1
unit-descriptor: %
inhibition: 90

compound-structure: CS(=O)(=O)c1ccc(-c2cc3c(cc2Cc2cccnc2)OCO3)cc1
unit-descriptor: %
inhibition: 65

compound-structure: CS(=O)(=O)c1ccc(-c2cc3c(cc2Cc2cc(F)cc(F)c2)OCO3)cc1
unit-descriptor: %
inhibition: 90

compound-structure: CS(=O)(=O)c1ccc(-c2cc3c(cc2C(=O)c2cnccc2Br)OCO3)cc1
unit-descriptor: %
inhibition: 0

Entry Cc1ccc(Cc2cc3c(cc2-c2ccc(S(C)(=O)=O)cc2)OCO3)cc1 , tested on Prostaglandin G/H synthase 2 (Homo sapiens) (UniProt P35354), has a reported inhibition of 80

---

Kindly supply the reported inhibition values for the records listed here.
Target: Prostaglandin G/H synthase 2 (Homo sapiens) (UniProt P35354)
Sequence (whole entry): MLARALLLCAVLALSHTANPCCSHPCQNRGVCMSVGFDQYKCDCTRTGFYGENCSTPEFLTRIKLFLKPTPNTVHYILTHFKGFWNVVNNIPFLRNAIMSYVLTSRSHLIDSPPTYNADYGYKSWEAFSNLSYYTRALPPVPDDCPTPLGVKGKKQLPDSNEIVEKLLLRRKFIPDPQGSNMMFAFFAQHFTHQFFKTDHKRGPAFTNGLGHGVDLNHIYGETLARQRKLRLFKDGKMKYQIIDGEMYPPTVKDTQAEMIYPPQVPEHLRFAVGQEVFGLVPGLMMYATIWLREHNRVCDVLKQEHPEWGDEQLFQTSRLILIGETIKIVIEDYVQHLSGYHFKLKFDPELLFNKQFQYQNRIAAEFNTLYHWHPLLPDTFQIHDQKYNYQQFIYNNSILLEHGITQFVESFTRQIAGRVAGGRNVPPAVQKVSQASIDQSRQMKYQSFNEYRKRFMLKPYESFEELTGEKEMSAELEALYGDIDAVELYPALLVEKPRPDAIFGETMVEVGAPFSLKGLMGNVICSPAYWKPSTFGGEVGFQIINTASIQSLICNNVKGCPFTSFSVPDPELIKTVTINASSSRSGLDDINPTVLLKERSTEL
Details: Blood; at 10 µM
Description: In vitro average percent Inhibition of Prostaglandin G/H synthase 2 (COX-2) at a concentration of 10 uM in human whole blood by human whole blood assay
Quote the value and follow it with the unit of measurement.

Example cases with answers are listed next.
compound-structure: CS(=O)(=O)c1ccc(-c2cc3c(cc2C(=O)c2ccccc2)OCO3)cc1
inhibition: 65%

compound-structure: Cc1ccc(Cc2cc3c(cc2-c2ccc(S(C)(=O)=O)cc2)OCO3)cc1
inhibition: 10%

compound-structure: CS(=O)(=O)c1ccc(-c2cc3c(cc2Cc2cc(F)cc(F)c2)OCO3)cc1
inhibition: 40%

Below is a list of molecules. For each, state its recorded inhibition.
1. CS(=O)(=O)c1ccc(-c2cc3c(cc2Cc2cccnc2)OCO3)cc1
2. CS(=O)(=O)c1ccc(-c2cc3c(cc2Cc2ccccc2)OCO3)cc1
3. Cc1cccc(C(=O)c2cc3c(cc2-c2ccc(S(C)(=O)=O)cc2)OCO3)c1

1. 15%
2. 50%
3. 85%

Source listed as ChEMBL document CHEMBL1145927.
